Give IC50 at 96 h for every item shown.
# procedure-text: Compound cytotoxicity in absence of virus (CellTiter-Glo)
# Assay type: cell-based
# stated-conditions: human; HOS cells, no virus added, cell viability; read-out: Cytotox (pIC50) (converted)
Where a name gives a salt, the structure may show the parent alone.

Q: What does the data say about its IC50 at 96 h? Entry: c1cnc2c(c1)CC[C@@H]1CCCN(Cc3nc4ccccc4n3Cc3ccncc3)[C@H]21 (racemic) [Example 12]
Result: > 100 µM

Q: Would you kindly share the measured IC50 at 96 h for NCCCn1c(CN2CCC[C@@H]3CCc4cccnc4[C@H]32)nc2ccccc21 (racemic) [Example 8] ?
Result: > 100 µM

Q: Can you look up the measured IC50 at 96 h of CN(C)CCCn1c(CN2CCC[C@@H]3CCc4cccnc4[C@@H]32)nc2ccccc21 [Example 11A] for me?
Result: > 100 µM

Q: Sample NCCCn1c(CN2CCC[C@H]3CCc4cccnc4[C@H]32)nc2ccccc21 (racemic) [Example 9] — what was its IC50 at 96 h?
Result: 28.8 µM

Q: # get_value(readout='IC50 at 96 h', item= CN(C)CCCn1c(CN2CCC[C@H]3CCc4cccnc4[C@@H]32)nc2ccccc21 (stereo in doubt) [Example 10A] )
Result: > 100 µM

Q: Quick one: IC50 at 96 h for CN(C)CCCn1c(CN2CCC[C@@H]3CCc4cccnc4[C@H]32)nc2ccccc21 (stereo in doubt) [Example 10B] ?
Result: > 100 µM

Q: Need IC50 at 96 h of CN1CCCC(Cn2c(CN3CCC[C@H]4CCc5cccnc5[C@H]43)nc3ccccc32)C1 (mixture of isomers) [Example 13] , thanks.
Result: > 100 µM

Q: Requested read-out: IC50 at 96 h. Entry: CN1CCN(c2cccc3nc(CN4CCC[C@@H]5CCc6cccnc6[C@@H]54)cn23)CC1 [Example 22]
Result: > 100 µM

Q: Which IC50 at 96 h is listed for CN1CCN(c2cccc3[nH]c(CN4CCC[C@@H]5CCc6cccnc6[C@H]54)nc23)CC1 (racemic) [Example 32, trifluoroacetate] ?
Result: > 10 µM

Q: Which measured IC50 at 96 h value corresponds to CN1CCN(c2cccc3nc(CN4CCC[C@H]5CCc6cccnc6[C@H]54)cn23)CC1 [Example 27] ?
Result: > 10 µM

Q: Look up IC50 at 96 h: CN1CCN(c2cccc3nc(CN4CCC[C@H]5CCc6cccnc6[C@H]54)[nH]c23)CC1 (racemic) [Example 33]
Result: 37.2 µM

Q: Consider the compound shown here: CN1CCN(c2cccc3nc(CN4CCC[C@@H]5CCc6cccnc6[C@H]54)cn23)CC1 (racemic) [Example 15A] What is its recorded IC50 at 96 h?
Result: > 100 µM

Q: // lookup IC50 at 96 h for CN1CCN(c2cccc3nc(CN4CCC[C@H]5CCc6cccnc6[C@H]54)cn23)CC1 (racemic) [Example 15B]
Result: > 100 µM

Q: Given the entry CN(C)CCCn1c(CN2CCC[C@H]3CCc4cccnc4[C@H]32)nc2ccccc21 [Example 11B] , report its measured IC50 at 96 h.
Result: > 100 µM

###

Kindly state pIC50 for each of the entries shown.
# Test system: HIV-1 IIIB
# procedure-text: HOS HIV-1 infectivity assay, IIIB strain
# Type: cell-based
# stated-conditions: Human immunodeficiency virus 1; T-tropic (CXCR4 utilizing) IIIB strain, HOS cells, 96 h, luciferase; read-out: HOS (3B)
Structures can show the parent of a compound that is named as a salt.
Units for pIC50: none; it is -log10 of a concentration expressed in mol/L.

Q: Test system HIV-1 IIIB; read-out pIC50; what value for CN(C)CCCn1c(CN2CCC[C@H]3CCc4cccnc4[C@H]32)nc2ccccc21 [Example 11B] ?
Result: 7.46

Q: Query for HIV-1 IIIB: what pIC50 does the record show for CN1CCN(c2cccc3nc(CN4CCC[C@@H]5CCc6cccnc6[C@@H]54)cn23)CC1 ?
Result: 7.00

Q: Requested read-out pIC50, target or system HIV-1 IIIB, entry NCCCn1c(CN2CCC[C@@H]3CCc4cccnc4[C@H]32)nc2ccccc21 (racemic)
Result: 6.66

Q: Kindly state the measured pIC50 obtained for CN1CCN(c2cccc3nc(CN4CCC[C@H]5CCc6cccnc6[C@H]54)cn23)CC1 [Example 27] with HIV-1 IIIB.
Result: 8.40

Q: Form: Entry = CN1CCN(c2cccc3[nH]c(CN4CCC[C@@H]5CCc6cccnc6[C@H]54)nc23)CC1 (racemic) [Example 32, trifluoroacetate] | System = HIV-1 IIIB | pIC50 = ____
Result: 6.59

Q: Please state recorded pIC50 (tested on HIV-1 IIIB) of CN1CCN(c2cccc3nc(CN4CCC[C@@H]5CCc6cccnc6[C@H]54)cn23)CC1 (racemic) [Example 15A]
Result: 7.48

Q: Query pIC50 on HIV-1 IIIB for CN1CCN(c2cccc3nc(CN4CCC[C@H]5CCc6cccnc6[C@H]54)[nH]c23)CC1 (racemic)
Result: 8.46

###

# experimental-target: human CXCR4 (Homo sapiens, UniProt P61073)
# Construct: expressed in transfected cells; host or cells: HEK-293 cells (stably expressing human macrophage scavenging receptor) transduced with human CXCR4 BacMam and Gqi5 BacMam baculovirus
# Sequence (P61073 whole entry): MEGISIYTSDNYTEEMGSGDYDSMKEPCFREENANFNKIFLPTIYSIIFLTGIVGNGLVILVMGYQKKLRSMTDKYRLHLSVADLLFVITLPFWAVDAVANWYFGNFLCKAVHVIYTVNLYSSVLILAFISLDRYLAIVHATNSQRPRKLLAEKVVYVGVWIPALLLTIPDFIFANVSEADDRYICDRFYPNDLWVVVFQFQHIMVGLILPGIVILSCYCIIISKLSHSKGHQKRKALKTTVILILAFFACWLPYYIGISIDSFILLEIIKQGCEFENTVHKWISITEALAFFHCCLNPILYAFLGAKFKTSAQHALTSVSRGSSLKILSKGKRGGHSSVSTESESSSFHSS
# procedure-text: Functional FLIPR assay (block of SDF-1 alpha calcium response)
# Type: cell-based
# stated-conditions: HEK-293 cells with human CXCR4 and Gqi5 BacMam; antagonism of SDF-1 alpha [Ca2+]i change; read-out: Functional assay (pIC50) (converted)
Please provide measured IC50 for the entries that follow.
# output: numeric value plus its unit

Q: Test system human CXCR4 (Homo sapiens, UniProt P61073); read-out IC50; what value for CN1CCCC(Cn2c(CN3CCC[C@H]4CCc5cccnc5[C@H]43)nc3ccccc32)C1 (mixture of isomers) ?
Result: 7.59 nM

Q: Which measured IC50 belongs to NCCCn1c(CN2CCC[C@H]3CCc4cccnc4[C@H]32)nc2ccccc21 (racemic) , tested on human CXCR4 (Homo sapiens, UniProt P61073)?
Result: 19.5 nM

Q: Requested read-out IC50, target or system human CXCR4 (Homo sapiens, UniProt P61073), entry CN1CCN(c2cccc3nc(CN4CCC[C@H]5CCc6cccnc6[C@H]54)[nH]c23)CC1 (racemic)
Result: 2.4 nM

Q: Which IC50 is reported with human CXCR4 (Homo sapiens, UniProt P61073) for this entry: CN1CCN(c2cccc3nc(CN4CCC[C@@H]5CCc6cccnc6[C@@H]54)cn23)CC1 ?
Result: 31.6 nM

Q: Form field: IC50 recorded for CN(C)CCCn1c(CN2CCC[C@H]3CCc4cccnc4[C@@H]32)nc2ccccc21 (stereo in doubt) [Example 10A] with human CXCR4 (Homo sapiens, UniProt P61073) (enter value)
Result: 182 nM

Q: Quick check: IC50 on human CXCR4 (Homo sapiens, UniProt P61073), item CN1CCN(c2cccc3nc(CN4CCC[C@H]5CCc6cccnc6[C@H]54)cn23)CC1 [Example 27] ?
Result: 1.26 nM

Q: Checklist item: IC50 tested on human CXCR4 (Homo sapiens, UniProt P61073), entry c1cnc2c(c1)CC[C@@H]1CCCN(Cc3nc4ccccc4n3Cc3ccncc3)[C@H]21 (racemic) , value?
Result: 1050 nM

###

# procedure-text: Compound cytotoxicity in absence of virus (CellTiter-Glo)
# Assay type: cell-based
# stated-conditions: human
endpoint: IC50 at 96 h (µM)
Give the value in µM but do not write µM after it.

Q: Reported IC50 at 96 h, molecule c1cnc2c(c1)CC[C@H]1CCCN(Cc3nc4ccccc4[nH]3)[C@H]21 (racemic) [Example 6] : ____
Result: 31.6
